Assay: mouse rota-rod test (16 r.p.m.)
Conditions: 40 mg/kg s.c., 45 min after treatment
Text: All products tested to detect their antinociceptive activity had been previously tested by the rota-rod test to determine their maximum utilizable dose in analgesic tests. In fact, by this test it is possible to determine the highest dose of drug not impairing the normal performance of animals in a test that simultaneously evaluates motor coordination, equilibrium, resistance to fatigue, and muscle strength. […] The calculated doses were those used in the two analgesic tests on mice.
metric: rota-rod performance (number of falls in 30 s)

{"molecule": "CCC(Oc1ccc(Cl)cc1)C(=O)O[C@H]1C[C@H]2CC[C@@H](C1)N2C (stereo partly drawn) [SM-21, 3α-Tropanyl 2-(p-chlorophenoxy)-butyrate]", "data_value": 1.2}
{"molecule": "CC(C(=O)O[C@H]1C[C@H]2CC[C@@H](C1)N2C)c1ccc(Br)cc1 (stereo partly drawn) [PG-9, 3α-Tropanyl 2-(p-bromophenyl)-propionate]", "data_value": 1.3}
{"molecule": "CN(C)CCOC(c1ccccc1)c1ccccc1 [Diphenhydramine, reference compound]", "data_value": 2.3}
{"molecule": "CCC(Sc1ccccc1)C(=O)O[C@H]1C[C@H]2CC[C@@H](C1)N2C (stereo partly drawn) [SM-32, 3α-Tropanyl 2-(phenylthio)-butyrate]", "data_value": 1.2}

----------
Test: in vivo
Settings: mouse, sc

{"compound": "CC(C(=O)O[C@H]1C[C@H]2CC[C@@H](C1)N2C)c1ccc(Br)cc1 (stereo partly drawn) [PG-9, 3α-Tropanyl 2-(p-bromophenyl)-propionate]", "LD50 [µmol/kg]": 373}
{"compound": "CCC(Oc1ccc(Cl)cc1)C(=O)O[C@H]1C[C@H]2CC[C@@H](C1)N2C (stereo partly drawn) [SM-21, 3α-Tropanyl 2-(p-chlorophenoxy)-butyrate]", "LD50 [µmol/kg]": 883}
{"compound": "CCC(Sc1ccccc1)C(=O)O[C@H]1C[C@H]2CC[C@@H](C1)N2C (stereo partly drawn) [SM-32, 3α-Tropanyl 2-(phenylthio)-butyrate]", "LD50 [µmol/kg]": 584}

----------
Assay: in vivo
Settings: mouse, in vivo, sc
Structures can show the parent of a compound that is named as a salt.

{"molecule": "CN(C)CCCN1c2ccccc2CCc2ccc(Cl)cc21 [Clomipramine HCl, reference compound]", "NOAEL": "20.2 mg/kg"}

----------
Assay: mouse rota-rod test (16 r.p.m.)
Conditions: 50 mg/kg s.c., 45 min after treatment
Where a name gives a salt, the structure may show the parent alone.
metric: rota-rod performance (number of falls in 30 s)

{"molecule": "CN(C)CCCN1c2ccccc2CCc2ccc(Cl)cc21 [Clomipramine HCl, reference compound]", "readout_unit": "falls in 30 s", "data_value": 1.5}
{"molecule": "CCC(Oc1ccc(Cl)cc1)C(=O)O[C@H]1C[C@H]2CC[C@@H](C1)N2C (stereo partly drawn) [SM-21, 3α-Tropanyl 2-(p-chlorophenoxy)-butyrate]", "readout_unit": "falls in 30 s", "data_value": 2.4}
{"molecule": "CCC(Sc1ccccc1)C(=O)O[C@H]1C[C@H]2CC[C@@H](C1)N2C (stereo partly drawn) [SM-32, 3α-Tropanyl 2-(phenylthio)-butyrate]", "readout_unit": "falls in 30 s", "data_value": 2.6}
{"molecule": "CC(C(=O)O[C@H]1C[C@H]2CC[C@@H](C1)N2C)c1ccc(Br)cc1 (stereo partly drawn) [PG-9, 3α-Tropanyl 2-(p-bromophenyl)-propionate]", "readout_unit": "falls in 30 s", "data_value": 2.8}

----------
Assay: mouse rota-rod test (16 r.p.m.)
Conditions: 50 mg/kg s.c., 30 min after treatment
Where a name gives a salt, the structure may show the parent alone.
Items are presented alongside their recorded rota-rod performance (number of falls in 30 s).
metric: rota-rod performance (number of falls in 30 s)

{"compound": "CC(C(=O)O[C@H]1C[C@H]2CC[C@@H](C1)N2C)c1ccc(Br)cc1 (stereo partly drawn) [PG-9, 3α-Tropanyl 2-(p-bromophenyl)-propionate]", "data_value": 2.7}
{"compound": "CCC(Sc1ccccc1)C(=O)O[C@H]1C[C@H]2CC[C@@H](C1)N2C (stereo partly drawn) [SM-32, 3α-Tropanyl 2-(phenylthio)-butyrate]", "data_value": 2.6}
{"compound": "CCC(Oc1ccc(Cl)cc1)C(=O)O[C@H]1C[C@H]2CC[C@@H](C1)N2C (stereo partly drawn) [SM-21, 3α-Tropanyl 2-(p-chlorophenoxy)-butyrate]", "data_value": 2.6}
{"compound": "CN(C)CCCN1c2ccccc2CCc2ccc(Cl)cc21 [Clomipramine HCl, reference compound]", "data_value": 1.8}

----------
Assay: in vivo
Conditions: mouse, ip
From the text: Potency, efficacy and toxicity of SM21, PG9 and SM32 in comparison with four principal reference analgesic drugs tested in mouse. As analgesic
metric: LD50 (µmol/kg)

{"compound": "O=C(c1ccccc1)c1ccc2n1CCC2C(=O)O (stereo not shown)", "data_value": 1260}
